These data points were gathered from PubChem BioAssay AID1421.

PGE2 EC50 with compound for assorted compounds
target: Prostaglandin E2 receptor EP2 subtype (Homo sapiens); assay: EP2 receptor modulators, dose response, cell-based, human EP2, PGE2 EC50 shift (AID 1421); details: EP2-expressing cells, PGE2 EC50 shift by compound; measured here: PGE2 EC50 at 6.7 uM compound
Number first, unit second.

compound | measured-on | PGE2 EC50 with compound
CCc1nnc2n1N=C(c1ccc(-c3cc(Cl)ccc3Cl)o1)CS2 | Prostaglandin E2 receptor EP2 subtype (Homo sapiens) | 0.89 nM
CC(C)(C)N(Cc1ccccc1)C(=O)c1ccc(Br)o1 | Prostaglandin E2 receptor EP2 subtype (Homo sapiens) | 0.94 nM
O=c1c(O)c(-c2ccccc2)oc2ccc3occc3c12 | Prostaglandin E2 receptor EP2 subtype (Homo sapiens) | 0.74 nM

Form field: PGE2 EC50 with compound recorded for S=c1[nH]nc(-c2ccccc2)n1/N=C/c1ccc(-c2ccccc2Cl)o1 with Prostaglandin E2 receptor EP2 subtype (Homo sapiens) (enter value)
2.43 nM
